// MFI lookup, one value per entry
biological target: T1, human TMEM106B (human, UniProt Q9NUM4 2-274); experiment: FACS U251
T1 construct: full-length, transiently expressed on HEK293 cells, or natively expressed on HeLa, U251 and A549 cells (the cell is named under assay); also the source of the Pepscan peptides; also called huTMEM106B; huTMEM

# binder, MFI / MFI
rows = [
    ("TM-50 (antibody, V domains shown, mouse IgG (hybridoma)) VH: QVQLKESGPVLVAPSQSLSITCTVSGFSLTNYGVHWVRQPPGKGLEWLGVIWAGGNTNYNSALMSRLSISKDNSKSQVFLKMNSLQTDDTAMYYCAKEAKLLRSYAMDYWGQGTLVTVSA VL: DVQMTQTTSSLSASLGDRVTISCRASQDINNYLYWYQQKPDGTVKLLIYYTSMLHSGVPSRFSGSGSGTDYSLTISNLEQEDIATYFCQQGSTLMYTFGGGTKLEIK", 260),
    ("TM-28 (antibody, V domains shown) VH: EVQLQQSGPVLVKPGPSVKISCMASVFTFNDYYIHWVKQSHGKSLEWIGLVYPYNGGTNYNQNFKGKATLTVDTSSRTAYMELNSLTSEDSAVYYCARSYFSNPIGYWGQGTLVTVSE VL: DIVMTQSPSSLSVSVGEKVTVSCKSSQSLLNSGNQKNYLAWYQQKPGQPPKLLIYGASTRESGVPDRFTGSGSGTDFTLTISSVQAEDLAVYYCQNDHSYPLTFGAGTKLELK", 998),
    ("TM-5 (antibody, V domains shown) VH: QVQLQQSGTELARPGASVKVSCKASGYIFTTYGITWVKQRGGQGLEWIGEIYPRSDNTYYNEKFKDKATLTADKSSSTAYMELRSLTSEDSAVYFCARSKGSGTGDYWGQGTTVTVSS VL: DIQMTQSPASLSASVGETVTITCRASENIYIYLAWYQQKQGKTPQLLVYNGKMLAENVPSRFSGSGSGTQFSLKINSLQPEDFGSYYCQHHYGSPPAFGAGTKLELK", 866),
]

Reference source: patent US20200339680A1
